Every entry's value here was drawn from patent US8013006B2.

# Tested on: HCV replicon
# assay.explanation: microbe, parasite or virus in culture
# Type: cell-based
# experimental.parameters: Replicon IC50 values are determined by firefly luciferase signal; bicistronic replicon, 2 days; read-out: Replicon IC5Os
What IC50 was measured for each of the following?

Query: Quote IC50 reported for CCN(CC)S(=O)(=O)Nc1cccc(-c2c(C#N)c3ccc(OC)cc3n2CC)c1 [Compound 574] please.
Reply: > 2000 nM

Query: For the compound COc1ccc2c(C#N)c(C#Cc3ccc(F)cc3)n(C)c2c1 [Compound 93] , give its measured IC50 value.
Reply: > 2000 nM

Query: Please give measured IC50 of the following entry: CCn1c(-c2cccc(NC(=O)O[C@@H]3CCOC3)c2)c(C#N)c2ccc(OC)cc21 [Compound 503]
Reply: > 2000 nM

Query: Look up and report measured IC50 for this entry: CCn1c(-c2cccc(NC(=O)NCCCCl)c2)c(C#N)c2ccc(OC)cc21 [Compound 400]
Reply: 500 to 2000 nM

* * *

result.type: melting point

Query: Tell me melting point reported for "CCOC(=O)Nc1ccc(-c2c(C#N)c3ccc(OCCF)cc3n2CC)cc1"
Reply: 208 to 210 °C

Query: Specify reported melting point for the molecule shown: "CCCn1c(-c2ccc(NS(C)(=O)=O)cc2)c(C#N)c2ccc(OC)cc21"
Reply: 178 to 180 °C

Query: Provide one value: measured melting point of "CCn1c(-c2ccc(N/C(C)=C/C#N)cc2)c(C#N)c2ccc(OC)cc21"
Reply: 157 to 159 °C

Query: Item "CCCS(=O)(=O)Nc1ccc(-c2c(C#N)c3cc(Cl)ccc3n2CC)cc1" : provide melting point
Reply: 195 to 200 °C

Query: Provide measured melting point value, entry: "CCn1c(-c2ccc(NS(C)(=O)=O)cc2)c(C#N)c2cc(OC)ccc21"
Reply: 194 to 198 °C

Query: Give the reported value of melting point for this record: "CCCS(=O)(=O)Nc1ccc(-c2c(C#N)c3ccc(OCCCl)cc3n2CC)cc1"
Reply: 126 to 128 °C

Query: Report measured melting point; entry is "CCn1c(-c2ccc(OCCNS(=O)(=O)CC)cc2)c(C#N)c2ccc(OC)cc21"
Reply: 153 to 158 °C

Query: Quick one: give measured melting point for "CCn1c(C#Cc2ccc(CC#N)cc2)c(C#N)c2ccc(OC)cc21"
Reply: 174 to 176 °C

Query: Respond only with melting point recorded for "CCCOC(=O)Nc1ccc(-c2c(C#N)c3cc(Cl)ccc3n2CC)cc1"
Reply: 201 to 206 °C

Query: Provide only the value of recorded melting point for "CCCS(=O)(=O)Nc1cccc(-c2c(C#N)c3ccc(C(F)(F)F)cc3n2CC)c1"
Reply: 210 to 212 °C

Query: Please supply the value of reported melting point for the item "CCn1c(-c2ccc(NC(=O)c3ccccc3)cc2)c(C#N)c2ccc(OC(C)C)cc21"
Reply: 209.2 to 209.7 °C

Query: Dear colleague, please send me the reported melting point for "CCn1c(C#Cc2ccc3c(c2)OCCO3)c(C#N)c2ccc(OC)cc21" when you can.
Reply: 132 to 135 °C

Query: Tell me its melting point given "CC(C)OC(=O)Nc1ccc(-c2c(C#N)c3ccc(OC(F)F)cc3n2CC2CC2)cc1" as the entry.
Reply: 153 to 155 °C

Query: Kindly indicate its recorded melting point. Item: "COc1ccc2c(C#N)c(-c3ccc(N4CCCS4(=O)=O)cc3)n(CC(C)C)c2c1"
Reply: 205 to 207 °C

Query: Answer with the recorded melting point for the molecule listed here: "CCCOc1ccc2c(C#N)c(-c3ccc(N4CCCS4(=O)=O)cc3)n(CC)c2c1"
Reply: 242 to 244 °C

Query: Name the recorded melting point of the molecule listed here: "CCn1c(-c2ccc3c(c2)N(S(C)(=O)=O)CC3)c(C#N)c2ccc(OC)cc21"
Reply: 198 to 202 °C

Query: Could you please provide reported melting point for "CCn1c(-c2ccc(N3CCCS3(=O)=O)cc2)c(C#N)c2ccc(OCCF)cc21" ? Thanks!
Reply: 255 to 258 °C

* * *

For each entry below, report its IC50 value.
# System: HCV replicon
# assay.explanation: microbe, parasite or virus in culture
# Format: cell-based
# experimental.parameters: Replicon IC50 values are determined by firefly luciferase signal; bicistronic replicon, 2 days; read-out: Replicon IC5Os

Query: Annotate the compound "CCOC(=O)Nc1ccc(F)c(-c2c(C#N)c3ccc(OC(C)C)cc3n2CC)c1" with its measured IC50.
Reply: > 2 µM

Query: Quickly give me recorded IC50 for "COc1ccc(-n2cc(C#N)c3ccc(NC(=O)OC(C)(C)C)cc32)cc1"
Reply: > 2 µM

Query: Input "CCn1c(-c2ccc(NC(=O)Oc3ccc(F)cc3)cc2)c(C#N)c2ccc(OC)cc21" , output reported IC50.
Reply: > 2 µM

Query: Answer with reported IC50 of "CCn1c(-c2ccc(C(=O)NCCCN3CCOCC3)cc2)c(C#N)c2ccc(OC)cc21"
Reply: > 2 µM

Query: Give IC50 for the following compound: "CCOC(=O)NC(=O)Nc1cccc(-c2c(C#N)c3cc(OC)ccc3n2CC)c1"
Reply: > 2 µM

Query: Determine its reported IC50: "CCn1c(-c2cc[nH]n2)c(C#N)c2ccc(OC)cc21"
Reply: > 2 µM

Query: Name the recorded IC50 of the compound listed here: "CCCn1c(-c2ccc(NS(=O)(=O)CC)cc2)c(C#N)c2ccc(OC(F)F)cc21"
Reply: < 0.5 µM

Query: Kindly indicate its recorded IC50. Item: "CCn1c(-c2ccc(N)cc2)c(C#N)c2ccc(OCCCl)cc21"
Reply: 0.5 to 2 µM

* * *

# Tested on: HCV replicon
# assay.explanation: microbe, parasite or virus in culture
# Assay type: cell-based
# experimental.parameters: Replicon IC50 values are determined by firefly luciferase signal; bicistronic replicon, 2 days; read-out: Replicon IC5Os
Give IC50 for every item shown.

Query: State its IC50: "CCn1c(-c2ccc(OCCN3CCN(C)CC3)cc2)c(C#N)c2ccc(OC)cc21"
Reply: 500 to 2000 nM

Query: Identify measured IC50 corresponding to "CCn1c(-c2ccc(NC(=O)Oc3ccc(C)cc3)cc2)c(C#N)c2ccc(OC)cc21"
Reply: > 2000 nM

Query: Please report the measured IC50 for "CCn1c(-c2ccc(NC(=O)C3CC3)cc2)c(C#N)c2ccc(C(F)(F)F)cc21"
Reply: 500 to 2000 nM

Query: Consider the molecule "CCn1cc(C#N)c2cc(-c3ccoc3)ccc21" . State its measured IC50.
Reply: > 2000 nM

* * *

# Tested on: HCV replicon
# assay.explanation: microbe, parasite or virus in culture
# Type: cell-based
# experimental.parameters: Hepatitis C virus, 48 h, read-out: Replicon IC5Os μM
result.type: IC50

Query: Return reported IC50. Input compound: CCn1c(C#Cc2cccc(O)c2)c(C#N)c2ccc(C(F)(F)F)cc21 [Compound 196]
Reply: 0.5 to 2 µM

Query: Give the measured IC50 for CCCn1c(-c2ccc(NS(=O)(=O)C3CC3)cc2)c(C#N)c2ccc(OC(F)F)cc21 [Compound 827]
Reply: < 0.5 µM

Query: In one line, give reported IC50 of the entry CCn1c(C#Cc2ccc(C(C)(C)C)cc2)c(C#N)c2ccc(OC)cc21 [Compound 145] .
Reply: 0.5 to 2 µM

Query: State its IC50: CCCn1c(-c2ccc(NC(=O)NCCc3ccccc3)cc2)c(C#N)c2ccc(OC)cc21 [Compound 848]
Reply: 0.5 to 2 µM

* * *

# Test system: HCV replicon
# assay.explanation: microbe, parasite or virus in culture
# Type: cell-based
# experimental.parameters: Replicon IC50 values are determined by firefly luciferase signal; bicistronic replicon, 2 days; read-out: Replicon IC5Os
Could you please report measured IC50 for the items listed next?

Query: Please report IC50 for the following compound: "CCn1c(-c2ccc(N3CCCS3(=O)=O)cc2)c(C#N)c2ccc(OCCN3CCCC3)cc21"
Reply: < 500 nM

Query: Output IC50 of "CCOC(=O)c1cn(CC)c2cc(OC)ccc12"
Reply: > 2000 nM

Query: Determine from records and report IC50 for "CCn1cc(-c2ccn[nH]2)c2ccc(C(=O)OC)cc21"
Reply: > 2000 nM

Query: Specify reported IC50 for the compound shown: "CCOC(=O)Nc1cccc(-c2c(C#N)c3ccc(OCCn4cncn4)cc3n2CC)c1"
Reply: > 2000 nM

Query: Give the value of IC50 reported for the following: "CCn1c(C#Cc2ccc(NC(=O)CN)cc2)c(C#N)c2ccc(OC)cc21"
Reply: > 2000 nM

Query: Report IC50, nothing else, for this compound: "CCn1c(C#Cc2ccc(C(F)(F)F)cc2)c(C#N)c2cc(OC)ccc21"
Reply: > 2000 nM

Query: Give recorded IC50. "CCn1c(-c2ccc(S(=O)(=O)N3CCOCC3)cc2)c(C#N)c2ccc(OC)cc21"
Reply: > 2000 nM

Query: Output measured IC50 for this item: "CCn1c(-c2cccc(NS(=O)(=O)CC)c2)c(C#N)c2cc(OC)ccc21"
Reply: > 2000 nM

Query: Please give measured IC50 of the following entry: "C=Cn1c(-c2ccc(NS(=O)(=O)CCC)cc2)c(C#N)c2ccc(OC)cc21"
Reply: 500 to 2000 nM

Query: Identify measured IC50 associated with "CCn1c(-c2ccc3occc3c2)c(C#N)c2ccc(OC)cc21"
Reply: 500 to 2000 nM

Query: # return recorded IC50 for entry "CCn1c(-c2ccc(NC(=O)Nc3ccc(Oc4ccccc4)cc3)cc2)c(C#N)c2ccc(OC)cc21"
Reply: > 2000 nM

Query: Quickly give me recorded IC50 for "CCn1c(-c2ccc(C(=O)Nc3ccc(Cl)c(Cl)c3)cc2)c(C#N)c2cc(OC)ccc21"
Reply: 500 to 2000 nM

Query: Recall and state the measured IC50 for "CCn1c(-c2ccccc2)c(C#N)c2ccc(OC)cc21" .
Reply: > 2000 nM

Query: Please give measured IC50 of the following entry: "CCn1c(-c2cccc(CN(C)S(C)(=O)=O)c2)c(C#N)c2ccc(OC)cc21"
Reply: > 2000 nM

Query: Read the entry "CCC(=O)c1cn(CC)c2cc(OC)ccc12" and write its reported IC50.
Reply: > 2000 nM

Query: Tell me measured IC50 for "CCn1c(-c2ccc(NS(=O)(=O)CC(F)(F)F)cc2)c(C#N)c2cc(Cl)ccc21" please.
Reply: > 2000 nM

Query: Read the entry "CCn1c(-c2cccc(NC(=O)c3cc(C)on3)c2)c(C#N)c2ccc(OC)cc21" and write its reported IC50.
Reply: > 2000 nM

Query: Supply reported IC50 belonging to this compound: "CCNc1c(C(=O)OC)c2ccc([N+](=O)O)cc2n1CC"
Reply: > 2000 nM
